measurement protocol: Primary qHTS for delayed death inhibitors of the malarial parasite plastid, 96 hour incubation
particulars: P. falciparum luciferase reporter growth; series mostly up to 28.7 µM
Among all 320,000 compounds or so, about 22,000 (6.9%) were called active. About 27% were inconclusive and are not listed. Calls follow the shape of the dose curve; as a rule, active = well fitted inhibition curve with a large enough effect; inconclusive = small, poorly fitted or top-dose-only effect, or another doubt; inactive = no such curve, though single readings can be large or run the other way. The list comes from a sample in which actives are over-represented; it also holds close analogues and randomly drawn compounds.
Outcomes: active, inactive

[[record]]
compound = "Cc1cccc(C(=O)NCC(=O)OCC(=O)N(C)CC(=O)Nc2ccccc2Cl)c1"
group_label = "inactive"

[[record]]
compound = "Cc1ccc2[nH]c(=O)c(CC(=O)O)c(-c3ccccc3)c2c1"
group_label = "inactive"

[[record]]
compound = "CCn1ccnc1CNC(=O)CC1C(=O)NCCN1Cc1ccc(F)cc1Cl (stereo not drawn)"
group_label = "inactive"

[[record]]
compound = "CCn1ccnc1CNC(=O)CC1C(=O)NCCN1CCCc1ccccc1 (stereo not drawn)"
group_label = "inactive"

[[record]]
compound = "CCCOC(=O)CC1C(=O)NCCN1Cc1ccc(F)cc1 (stereo not drawn)"
group_label = "inactive"

[[record]]
compound = "Cc1ccc(NC(=O)C2CCCN(S(=O)(=O)c3c(C)noc3C)C2)c(C)c1 (stereo not drawn)"
group_label = "inactive"

[[record]]
compound = "Cc1noc(C)c1C(=O)N1CCOCC1"
group_label = "inactive"

[[record]]
compound = "CNC(=O)C1CCN(S(=O)(=O)c2c(C)noc2/C=C/c2cccc(C)c2)CC1"
group_label = "active"

[[record]]
compound = "O=C(NCc1ccco1)/C(=C\\c1cccc([N+](=O)[O-])c1)NC(=O)c1ccco1"
group_label = "inactive"

[[record]]
compound = "O=C(CCl)Nc1cccc(CP(=O)(c2ccccc2)c2ccccc2)c1"
group_label = "active"

[[record]]
compound = "O=C(NNC(=O)C1CCCC1)c1ccc(F)cc1"
group_label = "inactive"

[[record]]
compound = "Cc1ccc(CN2CCNC(=O)C2CC(=O)NCc2csc(C(C)C)n2)cc1 (stereo not drawn)"
group_label = "active"

[[record]]
compound = "CC(C(=O)N(C)CC(=O)Nc1ccccc1C(F)(F)F)N1C(=O)c2ccccc2C1=O (stereo not drawn)"
group_label = "inactive"


FYI, the data here is from PubChem BioAssay AID504834.
